- target or system: T1, TSG101 UEV domain (human, UniProt Q99816 2-145)
- T1 sequence (looked up): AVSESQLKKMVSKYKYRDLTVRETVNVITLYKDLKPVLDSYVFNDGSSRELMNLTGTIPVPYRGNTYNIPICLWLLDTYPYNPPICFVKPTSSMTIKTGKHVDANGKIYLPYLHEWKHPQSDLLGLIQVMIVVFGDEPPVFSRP
- test protocol: fluorescence polarisation; direct binding (saturation curve): 1:1 dilution series of the protein domain with 5 nM FITC-labelled peptide; room temperature; 50 mM sodium phosphate buffer pH 7.4; fitted to the quadratic equation
- condition parameters: both partners purified
No end group written: not given here.
value type: Kd

Would you mind telling me what Kd value was observed for GLIPTAPPAD (also: FITC label, position not given here) [FITC-HIV2_Gag] ?
1900 nM
